- Test system: Trypanosoma cruzi (Tulahuen CL2 β-galactosidase) amastigotes in hMRC-5SV2 cells
- measurementDescription: T. cruzi intracellular amastigote assay (β-galactosidase/CPRG)
- Type: cell-based
- conditionSet: Trypanosoma cruzi, TULAHUEN, 168 h, intracellular amastigotes, 7 days; read-out: IC50 T. cruzi intramacrophage amastigotes (converted)
reportedProperty: IC50 (nM)

{"columns": ["compound", "reportedProperty", "resultOperator", "measuredValue"],
 "data": [
  ["O=C(/C=C/c1ccc(C(F)(F)F)cc1)/C=C/c1ccc(C(F)(F)F)cc1 [1r]", "IC50", "=", 1600],
  ["C=CCOc1ccc(OC)cc1/C=C/C(=O)/C=C/c1cc(OC)ccc1OCC=C [1n]", "IC50", "=", 24200],
  ["COc1ccc(/C=C/C(=O)/C=C/c2ccc(OC)c(OC)c2)cc1OC [1j]", "IC50", "=", 2100],
  ["Cc1ccc(/C=C/C(=O)/C=C/c2ccc(C)o2)o1 [1za]", "IC50", "=", 2200],
  ["O=C(/C=C/c1ccccc1Cl)/C=C/c1ccccc1Cl [1e]", "IC50", "=", 12000],
  ["O=C(/C=C/c1ccc(Cl)cc1)/C=C/c1ccc(Cl)cc1 [1f]", "IC50", "=", 35600],
  ["O=C1CC(c2ccccn2)[S+]([O-])C(c2ccccn2)C1 (mixture of isomers) [3′w]", "IC50", "=", 500],
  ["COc1ccc([C@H]2CC(=O)C[C@H](c3ccc(OC)cc3)S2)cc1 (relative stereo) [2d]", "IC50", ">", 64000],
  ["COc1cc(Br)c(O)c(/C=C/C(=O)/C=C/c2cc(OC)cc(Br)c2O)c1 [1p]", "IC50", "≤", 300],
  ["O=C(/C=C/c1ccc(OC(F)(F)F)cc1)/C=C/c1ccc(OC(F)(F)F)cc1 [1s]", "IC50", "=", 1800],
  ["Cc1ccc(/C=C/C(=O)/C=C/c2ccc(C)cc2)cc1 [1c]", "IC50", "=", 41900],
  ["N#Cc1ccc(/C=C/C(=O)/C=C/c2ccc(C#N)cc2)cc1 [1t]", "IC50", "=", 11900],
  ["COc1ccc(C2CC(=O)CC(c3ccc(OC)cc3)S2(=O)=O)cc1 (racemic) [4d]", "IC50", "≥", 64000],
  ["COc1ccc(OC)c(/C=C/C(=O)/C=C/c2cc(OC)ccc2OC)c1 [1m]", "IC50", "=", 1100],
  ["COc1ccc(/C=C/C(=O)/C=C/c2ccc(OC)cc2)cc1 [1d]", "IC50", "=", 10700],
  ["O=C(/C=C/c1ccccn1)/C=C/c1ccccn1 [1w]", "IC50", "=", 300],
  ["O=C1CC(c2ccccn2)SC(c2ccccn2)C1 (stereo not shown) [2′w]", "IC50", ">", 64000],
  ["O=C1C[C@H](c2ccccn2)S[C@@H](c2ccccn2)C1 (racemic) [2w]", "IC50", ">", 64000],
  ["CC1CS(=O)(=O)CCN1/N=C/c1ccc([N+](=O)[O-])o1 (stereo not shown) [Nifurtimox, nifurtimox, reference compound]", "IC50", "=", 845]
]}
